Reported GI50 values are given for each entry in this list.
system: NCI-H460; test: NCI tumour cell line growth inhibition, 48 h
Active and inactive are the calls of the source. Rule as the data show it: active = GI50 up to about 1.1 µM and inactive = higher.

molecule	GI50
Nc1nc2ncn(CCO)c2c(=S)[nH]1	> 100 µM (inactive)
NS(=O)(=O)c1ccc(N2C(=O)C(=O)N(c3ccccc3)C2=S)cc1	> 100 µM (inactive)
CCOC(=O)C1=C(C)N(CC(C)C)C2(O)C(OC)CC(=O)C3C(=O)N(c4ccccc4)C(=O)C132 (configuration not stated)	36.5 µM (inactive)
Cc1ccc([N+]2=NC(c3ccc([N+](=O)[O-])cc3)=NN(c3ccccc3)C2)cc1	41 µM (inactive)
CC(=O)OC12c3ccccc3-c3ccccc3C1C(C(=O)O)C2C(=O)O (configuration not stated)	> 10 µM (inactive)

Challenge: Reported GI50, molecule "O=[N+]([O-])/C(C(Cl)=C(Cl)Cl)=C(/Br)SCc1ccccc1" : ____
Response given: 7.13 µM (inactive)

Challenge: Reported GI50, molecule COc1cc2cc(C(=O)N3CC(COS(C)(=O)=O)c4c3cc([N+](=O)[O-])c3ccccc43)[nH]c2c(OC)c1OC (configuration not stated) : ____
Response given: 0.0986 µM (active)

Challenge: Reported GI50, molecule "[O-][n+]1onc(-c2ccccc2)c1CN1CCOCC1" : ____
Response given: > 100 µM (inactive)

Challenge: Reported GI50, molecule CCOC(=O)N1N=C(/C(C)=N/OC)C(C)[S+]1[O-] (configuration not stated) : ____
Response given: 57.7 µM (inactive)

Challenge: Reported GI50, molecule "N=c1c2ccccc2nc2oc3ccccc3n12" : ____
Response given: > 10 µM (inactive)

Challenge: Reported GI50, molecule "O=C1/C(=C/c2ccc(Br)cc2)CCC/C1=C\c1ccc(Br)cc1" : ____
Response given: 10.5 µM (inactive)
